# System: RAN translation of (G4C2)66-No ATG-GFP in HEK293T cells
# EXPERIMENT: Cell-based assay of RAN translation inhibition (GFP/mCherry reporter)
# STUDY_CONDITIONS: Homo sapiens, HEK-293T, 24 h, Table D; HEK293T, 24 h treatment; read-out: RANT IC25
Response key: met means IC25 >= 1 µM; not met means IC25 < 1 µM.

Below are worked cases with known answers.
Cc1c2ccncc2cc2c3cc(OCCN4CCCC4)ccc3n(C)c12 [Compound 7] : met
Cc1c2ccncc2cc2c3c(OCCN4CCOCC4)cccc3n(C)c12 [Example 54] : met
Cc1c2ccncc2cc2c3cc(OC[C@@H]4CCCN4)ccc3n(C)c12 [Example 39] : met
CNC(=O)COc1ccc2c(c1)c1cc3cnccc3c(C)c1n2C [Example 34] : met
Cc1c2ccncc2cc2c3cc(OCC4=NCCN4)ccc3n(C(C)C)c12 [Example 84] : met
COc1ccc2c(c1)c1cc3cnccc3c(C)c1n2C [Compound 1] : met

Threshold query (IC25 >= 1 µM) on Cc1c2ccnc(C(=O)N[C@H](C)CN(C)C)c2cc2c3cc(OCCCN4CCN(C)CC4)ccc3n(C)c12 [Example 26]
not met

Threshold query (IC25 >= 1 µM) on Cc1c2ccncc2cc2c3cc(OCC(N)=O)ccc3n(C)c12 [Compound 12]
not met

Threshold query (IC25 >= 1 µM) on Cc1c2ccncc2cc2c3cc(OCCN4CCN(C)CC4)ccc3n(C)c12 [Example 30]
met

* * *

# TESTED_ON: Biotin-labeled RNA (target RNA)
# EXPERIMENT: BLI affinity measurement (ForteBio Octet RED384)
# STUDY_CONDITIONS: Table G
Each entry below carries its recorded log10 of Kd.
// units: µM (pre-log); metric: Kd; scale: log10

Before answering, review these 4 worked examples.
CC(=O)N[C@@H](C)COc1ccc2c(c1)c1cc3cnccc3c(C)c1n2C : 0.89
COC[C@H](C)NC(=O)c1ccc2c(c1)c1cc3cnccc3c(C)c1n2C : 0.98
Cc1c2ccncc2cc2c3cc(OCCCN4CCCCC4)ccc3n(C)c12 : -0.16
COC(C)(C)CNC(=O)c1ccc2c(c1)c1cc3cnccc3c(C)c1n2C : -0.62

Identify measured log10 of Kd corresponding to `Cc1c2ccnc(C(=O)N[C@H](C)CN(C)C)c2cc2c3ccccc3n(C)c12`
0.74

* * *

Each entry below carries its recorded pKd.
# TESTED_ON: Biotin-labeled RNA (target RNA)
# EXPERIMENT: BLI affinity measurement (ForteBio Octet RED384)
# STUDY_CONDITIONS: Table G
Answer as the number alone; pKd is minus log10 of concentration in mol/L.

Before answering, review these 3 worked examples.
Cc1c2ccncc2cc2c3cc(C(=O)NC[C@H](C)N(C)C)ccc3n(C)c12 : 6.46
Cc1c2ccncc2cc2c3cc(C(=O)N[C@@H](C)CO)ccc3n(C)c12 : 5.42
Cc1c2ccncc2cc2c3ccccc3n(CC3=NCCN3)c12 : 5.30

Switching to the query record.
Identify measured pKd corresponding to `Cc1c2ccncc2cc2c3cc(C(=O)NC[C@H](C)N)ccc3n(C)c12`
6.06

* * *

# TESTED_ON: Biotin-labeled RNA (target RNA)
# EXPERIMENT: BLI affinity measurement (ForteBio Octet RED384)
# Format: binding
# STUDY_CONDITIONS: Table G
PROPERTY_LABEL: pKd
Answer as the number alone; pKd is minus log10 of concentration in mol/L.

Cc1c2ccncc2cc2c3cc(Oc4ccncc4)ccc3n(C)c12 : 5.92
Cc1c2ccncc2cc2c3cc(C(=O)NC[C@@H](C)O)ccc3n(C)c12 : 6.92
Cc1c2ccnc(C(=O)NCCN(C)C)c2cc2c3cc(F)c(F)cc3n(C)c12 : 5.33
Cc1c2ccncc2cc2c3ccccc3n(CCN3CCCCC3)c12 : 5.22
Cc1c2ccncc2cc2c3cc(Oc4ccc(N)nc4)ccc3n(C)c12 : 5.52
Cc1c2ccncc2cc2c3cc(OCC[C@H](C)N)ccc3n(C)c12 : 5.06

Switching to the query record.
Identify measured pKd corresponding to `Cc1c2ccnc(C(=O)N[C@H](C)CN(C)C)c2cc2c3cc(F)ccc3n(C)c12`
6.01

* * *

# TESTED_ON: biotinylated r(G4C2)8 RNA and hnRNP H1-His6
# EXPERIMENT: TR-FRET hnRNP H binding assay
# STUDY_CONDITIONS: Table D
PROPERTY_LABEL: Ki (µM)
Give just the number in µM; leave the unit off.

Before answering, review these 2 worked examples.
Cc1c2ccncc2cc2c3cc(OCCCC(=N)N)ccc3n(C)c12 [Example 44a] : 10
Cc1c2ccncc2cc2c3c(OCC4=NCCN4)cccc3n(C)c12 : 1

Switching to the query record.
Identify measured Ki corresponding to `Cc1c2ccncc2cc2c3cc(OCCN4CCCCC4)ccc3n(C)c12`
4.5

* * *

# System: RAN translation of (G4C2)66-No ATG-GFP in HEK293T cells
# EXPERIMENT: Cell-based assay of RAN translation inhibition (GFP/mCherry reporter)
# STUDY_CONDITIONS: Homo sapiens, HEK-293T, read-out: RANT IC50
PROPERTY_LABEL: IC50 (µM)
Give just the number in µM; leave the unit off.

Cc1c2ccncc2cc2c3ccccc3n(CCN(C)C)c12 [Compound 312] : 7.4
Cc1c2ccncc2cc2c3ccccc3n(CCN3CCOCC3)c12 [Compound 319] : 12
Cc1c2ccncc2cc2c3cc(Oc4cccnc4)ccc3n(C)c12 [Compound 311] : 20
Cc1c2ccncc2cc2c3ccccc3n(CCN3CCCCC3)c12 [Compound 318] : 16

Switching to the query record.
Identify measured IC50 corresponding to CCCN[C@@H](C)COc1ccc2c(c1)c1cc3cnccc3c(C)c1n2C [Compound 277]
1.5

* * *

Each entry below carries its recorded log10(Kd).
# TESTED_ON: Biotin-labeled RNA (target RNA)
# EXPERIMENT: BLI affinity measurement (ForteBio Octet RED384)
# STUDY_CONDITIONS: Table G
// units: nM (pre-log); metric: Kd; scale: log10

Before answering, review these 3 worked examples.
Cc1c2ccncc2cc2c1[nH]c1ccc(OCCN)cc12 : 2.79
Cc1c2ccncc2cc2c3cc(C(=O)N[C@H](C)C(N)=O)ccc3n(C)c12 : 3.82
Cc1c2ccncc2cc2c3cc(C(=O)NCC(N)=O)ccc3n(C)c12 : 3.72

Identify measured log10(Kd) corresponding to `Cc1c2ccncc2cc2c3cc(C(=O)N[C@H](C)CN)ccc3n(C)c12`
2.15

* * *

# TESTED_ON: biotinylated r(G4C2)8 RNA and hnRNP H1-His6
# EXPERIMENT: TR-FRET hnRNP H binding assay
# STUDY_CONDITIONS: Table D
PROPERTY_LABEL: pKi
Answer as the number alone; pKi is minus log10 of concentration in mol/L.

Before answering, review these 10 worked examples.
Cc1c2ccncc2cc2c3cc(OCCN4CCOCC4)ccc3n(C)c12 : 4.80
COc1ccc2c(c1)c1cc3ccncc3c(C)c1n2C : 4.48
Cc1c2ccncc2cc2c3cc(OCC4=NCCN4)ccc3n(C)c12 : 5.08
CCc1nccc2c(C)c3c(cc12)c1cc(OC)ccc1n3C [Example 80a] : 4.52
COc1cccc2c1c1cc3c(C(=O)N[C@H](C)CN(C)C)nccc3c(C)c1n2C : 5.38
Cc1c2ccncc2cc2c3cc(OC[C@@H]4CCCN4)ccc3n(C)c12 : 6.10
Cc1c2ccncc2cc2c3cc(C(=O)NCCN4CCCCC4)ccc3n(C)c12 : 5.92
Cc1c2ccncc2cc2c3cc(OCCCN(C)C)ccc3n(C)c12 : 4.49
Cc1c2ccncc2cc2c3cc(OC[C@H]4CCCN4C)ccc3n(C)c12 : 5.41
CCN(CC)CCCOc1ccc2c(c1)c1cc3cnccc3c(C)c1n2C : 5.14

Identify measured pKi corresponding to `Cc1c2ccncc2cc2c3cc(OCC4=NCCN4C)ccc3n(C)c12`
6.22

Identify measured pKi corresponding to `Cc1c2ccncc2cc2c3cc(OCCN4CCN(C)CC4)ccc3n(C)c12`
5.60

Identify measured pKi corresponding to `COc1ccc2c(c1)c1cc3c(C(=O)N[C@@H](C)CN(C)C)nccc3c(C)c1n2C`
5.04

* * *

# TESTED_ON: biotinylated r(G4C2)8 RNA and hnRNP H1-His6
# EXPERIMENT: TR-FRET hnRNP H binding assay
# STUDY_CONDITIONS: Table F
PROPERTY_LABEL: Ki (µM)
Give just the number in µM; leave the unit off.

Before answering, review these 5 worked examples.
Cc1c2ccnc(C(C)C)c2cc2c3cc(C(=O)NCCN(C)C)ccc3n(C)c12 : 20
Cc1c2ccnc(C3CCCO3)c2cc2c3cc(C(=O)NCCN(C)C)ccc3n(C)c12 (centres unmarked) : 6.9
Cc1c2ccncc2cc2c3cc(C(=O)NCCO)ccc3n(C)c12 : 3.6
Cc1c2ccnc(C(=O)N[C@H](C)CN(C)C)c2cc2c3c(OCCCN4CCN(C)CC4)cccc3n(C)c12 : 1.8
Cc1c2ccncc2cc2c3cc(OC[C@H](C)N(C)C)ccc3n(C)c12 : 1.2

Identify measured Ki corresponding to `Cc1c2ccncc2cc2c3cc(OCCN4CCC(F)CC4)ccc3n(C)c12`
4.2

Identify measured Ki corresponding to `COc1cccc2c3cc4c(C(=O)N[C@H](C)CN(C)C)nccc4c(C)c3n(C)c12`
20

Identify measured Ki corresponding to `Cc1c2ccncc2cc2c1[nH]c1ccc(OCC3=NCCN3)cc12`
5.7

Identify measured Ki corresponding to `Cc1c2ccncc2cc2c3cc(OCC4=NCCN4)ccc3n(CCC(C)C)c12`
22

Identify measured Ki corresponding to `Cn1c2ccc(OCC3=NCCN3)cc2c2cc3cnccc3cc21`
0.8

Identify measured Ki corresponding to `Cc1c2ccncc2cc2c3cccc(OCCN(C)C)c3n(C)c12`
2.3

Identify measured Ki corresponding to `Cc1c2ccncc2cc2c3cc(OCC4=NCCN4)cc(F)c3n(C)c12`
1.8

Identify measured Ki corresponding to `Cc1c2ccncc2cc2c3cc(C(=O)NCCN4CCCCC4)ccc3n(C)c12`
1.2

Identify measured Ki corresponding to `Cc1c2ccncc2cc2c1[nH]c1ccc(OCCN3CCOCC3)cc12`
11

Identify measured Ki corresponding to `Cc1c2ccncc2cc2c3cc(N4CCNC5(CC5)C4)ccc3n(C)c12`
1.6

Identify measured Ki corresponding to `Cc1c2ccncc2cc2c3cc(OCCN4CCCCCC4)ccc3n(C)c12`
1.2

Identify measured Ki corresponding to `COCCNC(=O)c1ccc2c(c1)c1cc3cnccc3c(C)c1n2C`
12

Identify measured Ki corresponding to `Cc1c2ccncc2cc2c3cc(N4CCN(C)CC4)ccc3n(C)c12`
0.6

Identify measured Ki corresponding to `CN(C)CCOc1ccc2c(c1)c1cc3cnccc3cc1n2C`
3.6

Identify measured Ki corresponding to `Cc1c2ccncc2cc2c3cccc(OCC4=NCCN4)c3n(C)c12`
2

Identify measured Ki corresponding to `Cc1c2ccncc2cc2c3cc(OCc4ncc[nH]4)ccc3n(C)c12`
19

Identify measured Ki corresponding to `Cc1c2ccncc2cc2c3cc(C(=O)OCCN(C)C)ccc3n(C)c12`
24

Identify measured Ki corresponding to `Cc1c2ccncc2cc2c3cc(N4CCNCC4)ccc3n(C)c12`
0.4

Identify measured Ki corresponding to `Cc1c2ccncc2cc2c1oc1ccc(OCC3=NCCN3)cc12`
7.5

Identify measured Ki corresponding to `Cc1c2ccncc2cc2c3cc(OCCN4CCC(C)CC4)ccc3n(C)c12`
1.4

Identify measured Ki corresponding to `Cc1c2ccncc2cc2c1sc1ccc(OCCN(C)C)cc12`
8.6

Cited source: patent US20240067639A1
